Measured values drawn from patent US8859574B2 for this set.

- targetUnderTest: IGF-1R Ba/F3 (Homo sapiens, UniProt P08069)
- Construct: fused on or other part: TEL- (or BCR-) IGF-1R in Ba/F3: the kinase part holds the site
- Sequence (P08069 999-1274 limits assumed): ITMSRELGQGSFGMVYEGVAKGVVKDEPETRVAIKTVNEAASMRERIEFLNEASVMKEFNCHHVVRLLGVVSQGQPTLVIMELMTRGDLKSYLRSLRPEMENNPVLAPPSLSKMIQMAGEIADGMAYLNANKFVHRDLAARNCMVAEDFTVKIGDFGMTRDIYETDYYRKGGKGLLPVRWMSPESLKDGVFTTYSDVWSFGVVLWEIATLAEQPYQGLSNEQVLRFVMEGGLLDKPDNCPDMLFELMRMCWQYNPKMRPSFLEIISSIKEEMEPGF
- methodNotes: Ba/F3 Cell Viability Inhibition Assay (IGF-1R Ba/F3)
- testParameters: Tel-TK transformed Ba/F3 cells, 48 hours, Britelite luminescence
Flag rule - IC50 less than 30 nM flags Y; the remaining entries get N.

Some solved cases for reference:
{"compound": "Cc1cc(Nc2nc(Nc3cc(Cl)c(C4CCN(C)CC4)cc3C)ncc2Cl)n[nH]1 [Compound 7]", "classification": "Y"}
{"compound": "Cc1cc(Nc2nc(Nc3cc(C)c(C4CCN(C(=O)CCCN5CCCC5)CC4)cc3C)ncc2Cl)n[nH]1 [Compound 227]", "classification": "N"}
{"compound": "Cc1cc(Nc2nc(Nc3cc(C)c(C4CCN([C@@H](C)C(N)=O)CC4)cc3F)ncc2Cl)n[nH]1 [Compound 163]", "classification": "N"}

[Q] Determine if Cc1cc(Nc2nc(Nc3cc(C)c(C4CCN(C(=O)C5CNC5)CC4)cc3F)ncc2Cl)n[nH]1 [Compound 131] shows IC50 strictly lower than 30 nM.
[A] N

[Q] hey, is IC50 for CCc1noc(CN2CCC(c3cc(C)c(Nc4ncc(Cl)c(Nc5cc(C)[nH]n5)n4)cc3C)CC2)n1 [Compound 303] lower than 30 nM or not?
[A] Y

[Q] Determine whether this compound shows IC50 lower than 30 nM (ties excluded): Cc1cc(Nc2nc(Nc3cc(C)c(C4CCN(C(=O)C5(N)CC5)CC4)cc3F)ncc2Cl)n[nH]1 [Compound 93]
[A] N

###

- targetUnderTest: IGF-1R Ba/F3 (Homo sapiens)
- Construct: fused on or other part: TEL- (or BCR-) IGF-1R in Ba/F3: the kinase part holds the site
- methodNotes: Ba/F3 Cell Viability Inhibition Assay (IGF-1R Ba/F3)
- testParameters: Tel-TK transformed Ba/F3 cells, 48 hours, Britelite luminescence
measurementName: pIC50
Numbers only, as −log10 of the molar value.

Answered cases to consult:
{"compound": "Cc1cc(Nc2ncc(Cl)c(N[C@H]3CCCCNC3=O)n2)c(F)cc1C1CCN(C)CC1 (single isomer, unassigned)", "resultValue": 6.06}
{"compound": "Cc1cc(Nc2nc(Nc3cc(C)c(C4CCN(C5CCS(=O)(=O)C5)CC4)cc3F)ncc2Cl)n[nH]1 (stereo not shown)", "resultValue": 7.74}

Batch of 2 compounds: report pIC50 for each.
1. Cc1cc(Nc2nc(Nc3cc(Cl)c(C4CCN(C(=O)CN(C)C)CC4)cc3Cl)ncc2Cl)n[nH]1
2. Cc1cc(Nc2nc(Nc3cc(C)c(C4CCNCC4)cc3F)ncc2Cl)n[nH]1

[A]
[8.15, 7.30]

###

- targetUnderTest: IGF-1R Ba/F3 (Homo sapiens, UniProt P08069)
- Construct: fused on or other part: TEL- (or BCR-) IGF-1R in Ba/F3: the kinase part holds the site
- methodNotes: Ba/F3 Cell Viability Inhibition Assay (IGF-1R Ba/F3)
- testParameters: Tel-TK transformed Ba/F3 cells, 48 hours, Britelite luminescence
Returns: string. Value is YES if measured IC50 is below 0.03 µM, and NO if it is greater than or equal to it.

{"compound": "CCN1CCC(c2cc(C)c(Nc3ncc(Cl)c(Nc4cc(C5CC5)[nH]n4)n3)cc2C)CC1", "classification": "YES"}

# ---- query compound ----
[Q] IC50 under 0.03 µM? Item: Cc1cc(C2CCNCC2)c(C)cc1Nc1ncc(Cl)c(Nc2cc(C(F)(F)F)[nH]n2)n1
[A] NO

###

- targetUnderTest: IGF-1R Ba/F3 (Homo sapiens, UniProt P08069)
- Construct: fused on or other part: TEL- (or BCR-) IGF-1R in Ba/F3: the kinase part holds the site
- methodNotes: Ba/F3 Cell Viability Inhibition Assay (IGF-1R Ba/F3)
- testParameters: Tel-TK transformed Ba/F3 cells, 48 hours, Britelite luminescence
Provide the reported pIC50 of each item.
Give bare numbers, as −log10 of the molar value.

Illustrative cases are given below, each with its answer.
{"compound": "CNC(=O)CN1CCCC(c2cc(C)c(Nc3ncc(Cl)c(Nc4cc(C)[nH]n4)n3)cc2C)C1 (stereo not shown)", "measurementName": "pIC50", "resultValue": 7.82}
{"compound": "Cc1cc(Nc2nc(Nc3cc(C(F)(F)F)c(C4CCNCC4)cc3F)ncc2Cl)n[nH]1", "measurementName": "pIC50", "resultValue": 7.12}
{"compound": "Cc1cc(C2CCN(C(=O)C3(N)CC3)CC2)c(C)cc1Nc1ncc(Cl)c(Nc2cc(C3CC3)[nH]n2)n1", "measurementName": "pIC50", "resultValue": 7.72}

IGF-1R Ba/F3 (Homo sapiens, UniProt P08069) pIC50 of Cc1cc(Nc2ncc(Cl)c(Nc3cc(C(F)(F)F)[nH]n3)n2)c(F)cc1C1CCN(CC(N)=O)CC1 is 7.31

###

- targetUnderTest: IGF-1R Ba/F3 (Homo sapiens)
- Construct: fused on or other part: TEL- (or BCR-) IGF-1R in Ba/F3: the kinase part holds the site
- methodNotes: Ba/F3 Cell Viability Inhibition Assay (IGF-1R Ba/F3)
- Type: cell-based, murine
- testParameters: Tel-TK transformed Ba/F3 cells, 48 hours, Britelite luminescence
measurementName: pIC50
One number for each entry, as −log10 of the molar value.

Use the examples below as a reference point.
{"compound": "Cc1cc(Nc2nc(Nc3cc(C)c(C4CCN(C(C)C(=O)O)CC4)cc3F)ncc2Cl)n[nH]1 (centres unmarked) [Compound 54]", "pIC50": 5.82}
{"compound": "Cc1cc(Nc2nc(Nc3cc(C4CCN(CC(O)C(F)(F)F)CC4)c(F)cc3C)ncc2Cl)n[nH]1 (centres unmarked) [Compound 31]", "pIC50": 5.19}
{"compound": "CCNC1(C(=O)N2CCC(c3cc(C)c(Nc4ncc(Cl)c(Nc5cc(C)[nH]n5)n4)cc3C)CC2)CC1 [Compound 170]", "pIC50": 8.52}
{"compound": "Cc1cc(Nc2ncc(Cl)c(Nc3cc(C(F)(F)F)[nH]n3)n2)c(F)cc1C1CCNCC1 [Compound 171]", "pIC50": 7.17}

For each of the compounds below, note its pIC50.
1. Cc1cc(Nc2nc(Nc3cc(C)c(C4CCCCN4Cc4c(C)noc4C)cc3C)ncc2Cl)n[nH]1 (centres unmarked) [Compound 191]
2. Cc1cc(Nc2nc(Nc3cc(C)c(C4CCN(C(=O)CN5CCOCC5)CC4)cc3C)ncc2Cl)n[nH]1 [Compound 102]
3. Cc1cc(Nc2nc(Nc3cc(C)c(C4CCN(Cc5ccccn5)CC4)cc3F)ncc2Cl)n[nH]1 [Compound 281]

[A]
1. 6.95
2. 8.05
3. 7.06

For each of the items listed, what is its pIC50?
1. Cc1cc(Nc2nc(Nc3cc(C)c(C4CCN(C(=O)C(C)(C)N)CC4)cc3C)ncc2Cl)n[nH]1 [Compound 89]
2. Cc1cc(Nc2nc(Nc3cc(C)c(C4CCN(C(=O)C5(N(C)C)CCC5)CC4)cc3C)ncc2Cl)n[nH]1 [Compound 92]
3. Cc1cc(Nc2nc(Nc3cc(C)c(C4CCN(Cc5cncnc5)CC4)cc3F)ncc2Cl)n[nH]1 [Compound 314]
4. Cc1noc(CN2CCC(c3cc(C)c(Nc4ncc(Cl)c(Nc5cc(C)[nH]n5)n4)cc3C)CC2)n1 [Compound 302]
5. Cc1cc(Nc2nc(Nc3cc(C)c([C@H]4COC(=O)N4)cc3C)ncc2Cl)n[nH]1 [Compound 230]
6. CCN(CC)CC(=O)N1CCC(c2cc(F)c(Nc3ncc(Cl)c(Nc4cc(C)[nH]n4)n3)cc2C)CC1 [Compound 81]
7. Cc1cc(Nc2nc(Nc3cc(C)c(C4CCN(C(=O)c5cnn(C)c5C(F)(F)F)CC4)cc3F)ncc2Cl)n[nH]1 [Compound 130]

[A]
[7.64, 7.82, 7.43, 8.22, 7.40, 7.52, 7.21]

Batch request: pIC50 per item, same order as input.
1. CCN1CCC(c2cc(C)c(Nc3ncc(Cl)c(Nc4cc(C)[nH]n4)n3)cc2C(F)(F)F)CC1 [Compound 241]
2. CNC(=O)[C@H](C)N1CCC(c2cc(F)c(Nc3ncc(Cl)c(Nc4cc(C)[nH]n4)n3)cc2C)CC1 [Compound 164]
3. CNC1(C(=O)N2CCC(c3cc(C)c(Nc4ncc(Cl)c(Nc5cc(C)[nH]n5)n4)cc3C)CC2)CC1 [Compound 90]
4. Cc1cc(Nc2nc(Nc3cc(C)c(C4CCN(C(=O)C(C)N)CC4)cc3F)ncc2Cl)n[nH]1 (centres unmarked) [Compound 86]
5. Cc1cc(Nc2nc(Nc3cc(C)c(C4CCN(Cc5noc(C)n5)CC4)cc3C)ncc2Cl)n[nH]1 [Compound 304]
6. Cc1cc(C2CCN(CC(N)=O)CC2)c(C)cc1Nc1ncc(Cl)c(Nc2cc(C3CC3)[nH]n2)n1 [Compound 35]
7. Cc1cc(Nc2ncc(Cl)c(Nc3cc(C4CC4)[nH]n3)n2)c(F)cc1C1CCNCC1 [Compound 17]

[A]
1: 7.17; 2: 7.48; 3: 8.30; 4: 6.85; 5: 8.30; 6: 7.96; 7: 6.80

For each entry beneath this line, provide reported pIC50.
1. Cc1cc(Nc2nc(Nc3cc(C)c(C4CCN(C5CCSCC5)CC4)cc3C)ncc2Cl)n[nH]1 [Compound 174]
2. CNC(=O)[C@H](C)N1CCC(c2cc(C)c(Nc3ncc(Cl)c(Nc4cc(C)[nH]n4)n3)cc2C)CC1 [Compound 168]

[A]
1. 8.10
2. 8.00

Each of the following entries comes with a recorded value; kindly state pIC50 for each.
1. Cc1cc(Nc2nc(Nc3cc(C)c(C4CCN(Cc5noc(C(C)C)n5)CC4)cc3F)ncc2Cl)n[nH]1 [Compound 285]
2. CCOC(=O)N1CCC(c2cc(F)c(Nc3ncc(Cl)c(Nc4cc(C)[nH]n4)n3)cc2C)CC1 [Compound 66]
3. Cc1cc(Nc2nc(Nc3cc(C)c(C4CCN(Cc5noc(C(C)(C)C)n5)CC4)cc3F)ncc2Cl)n[nH]1 [Compound 267]
4. Cc1cc(Nc2nc(Nc3cc(C)c(C4CCN([C@@H]5CCN(S(C)(=O)=O)C5)CC4)cc3F)ncc2Cl)n[nH]1 [Compound 312]
5. Cc1cc(Nc2nc(Nc3cc(C)c(C4CCN(C(=O)c5oc(C)nc5C)CC4)cc3F)ncc2Cl)n[nH]1 [Compound 127]

[A]
[7.17, 7.19, 7.11, 7.60, 7.57]

Field pIC50 (entry Cc1cc(Nc2nc(Nc3cc(C)c(C4CCN(C5CCN(S(C)(=O)=O)C5)CC4)cc3F)ncc2Cl)n[nH]1 (centres unmarked) [Compound 301] ) reads 7.42
